- Test Target: FGFR1 (human) (UniProt P11362)
- Sequence (P11362 whole entry, looked up): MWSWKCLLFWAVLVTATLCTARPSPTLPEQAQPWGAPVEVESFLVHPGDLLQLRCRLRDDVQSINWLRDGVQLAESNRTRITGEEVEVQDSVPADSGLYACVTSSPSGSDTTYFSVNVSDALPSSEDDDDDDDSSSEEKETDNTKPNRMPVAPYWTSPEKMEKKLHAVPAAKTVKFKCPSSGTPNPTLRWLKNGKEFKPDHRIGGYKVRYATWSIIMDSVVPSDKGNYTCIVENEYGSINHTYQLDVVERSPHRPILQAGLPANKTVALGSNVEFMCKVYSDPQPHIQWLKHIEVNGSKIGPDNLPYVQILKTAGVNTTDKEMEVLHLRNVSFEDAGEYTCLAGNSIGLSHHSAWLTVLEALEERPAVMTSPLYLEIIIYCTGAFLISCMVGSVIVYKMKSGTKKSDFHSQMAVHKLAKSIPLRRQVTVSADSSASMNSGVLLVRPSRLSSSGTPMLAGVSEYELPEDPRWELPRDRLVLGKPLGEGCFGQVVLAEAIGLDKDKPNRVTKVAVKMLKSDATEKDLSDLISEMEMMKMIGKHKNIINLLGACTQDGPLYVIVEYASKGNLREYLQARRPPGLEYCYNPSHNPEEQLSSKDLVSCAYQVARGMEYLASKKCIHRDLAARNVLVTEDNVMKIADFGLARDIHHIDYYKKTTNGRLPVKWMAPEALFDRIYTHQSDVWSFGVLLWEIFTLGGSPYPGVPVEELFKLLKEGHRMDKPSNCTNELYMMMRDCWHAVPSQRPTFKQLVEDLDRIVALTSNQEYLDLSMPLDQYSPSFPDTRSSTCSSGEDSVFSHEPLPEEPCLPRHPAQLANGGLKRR
- Cond: compound 10.0 µM
Result Type: inhibition (%)

# count of solved cases: 2
molecule=COc1cc2ncnc(Nc3ccc(Cl)cc3F)c2cc1OC test_target="FGFR1 (human) (UniProt P11362)" result_type=inhibition unit_abbrev=% reported_measurement=7
molecule="CS(=O)c1ccc(-c2nc(-c3ccc(F)cc3)c(-c3ccncc3)[nH]2)cc1 (stereo not given)" test_target="FGFR1 (human) (UniProt P11362)" result_type=inhibition unit_abbrev=% reported_measurement=11

A: CS(=O)(=O)CCNCc1nc(-c2ccc3ncnc(Nc4ccc(OCc5cccc(F)c5)c(Cl)c4)c3c2)cs1
B: CN(C)CCCn1cc(C2=C(c3c[nH]c4ccccc34)C(=O)NC2=O)c2ccccc21
C: O=C1Nc2ccc(I)cc2/C1=C/c1cc(Br)c(O)c(Br)c1
Arrange by inhibition, high to low. Please respond with the labels ordered as the question requires. B, C, A
(B: 50%, C: 32%, A: 8%)

---

- Test Target: FGFR1 (human)
- Cond: compound 10.0 µM
Result Type: inhibition (%)

P: COc1nccc(-c2c(-c3ccc(F)cc3)ncn2[C@H]2CC[C@H](O)CC2)n1
Q: Brc1c(Br)c(Br)c2[nH]nnc2c1Br
R: O=C1NC(=O)c2cc(Nc3ccc(F)cc3)c(Nc3ccc(F)cc3)cc21
S: O=S(=O)(c1cccc2c(Cl)cccc12)N1CCCNCC1
T: NC(=O)Nc1sc(-c2ccc(F)cc2)cc1C(N)=O
List the items above again, this time ordered by increasing inhibition. Please respond with the labels ordered as the question requires. P, S, Q, R, T

a: CCN(CC)CCCCN1c2ccccc2Oc2ccc(Cl)cc21
b: O=c1cc(N2CCOCC2)oc2c1ccc1ccccc12
c: NC(=O)c1ccc(-c2nc(-c3ccccn3)c(-c3ccc4c(c3)OCO4)[nH]2)cc1
d: Fc1ccc(Cl)cc1-c1nc(Nc2ccncc2)c2nccnc2n1
Arrange by inhibition, high to low. Please respond with the labels ordered as the question requires. d, c, b, a
(d: 37%, c: 8%, b: 4%, a: 0%)

1: N#C/C(=C(/N)Sc1ccc(N)cc1)c1ccccc1C(F)(F)F
2: Nc1ncnc2[nH]nc(Nc3ccc(F)cc3)c12
Compare the recorded inhibition of 1 and 2 ; state which is larger. The response must carry the label of the picked entry. 2

---

- Test Target: FGFR1 (human) (UniProt P11362)
- Cond: compound 10.0 µM
Result Type: inhibition (%)

# count of solved cases: 2
sample_smiles=c1ccc(-c2n[nH]cc2-c2ccnc3ccccc23)nc1 unit_abbrev=% reported_measurement=9
sample_smiles=Oc1ccc(-c2nc(-c3ccc(F)cc3)c(-c3ccncc3)[nH]2)cc1 unit_abbrev=% reported_measurement=0

a: Cn1cc(C2=C(c3ccc(Cl)cc3Cl)C(=O)NC2=O)c2ccccc21
b: NC(=O)c1ccc(-c2nc(-c3ccccn3)c(-c3ccc4c(c3)OCCO4)[nH]2)cc1
Compare the recorded inhibition of a and b ; state which is larger. The response must carry the label of the picked entry. a

a: Cc1ccc(-c2nn(C(C)(C)C)c3ncnc(N)c23)cc1
b: CN(C)c1ccc(/C=C2\C(=O)Nc3ccccc32)cc1
Given a and given b , which shows the smaller recorded inhibition? The response must carry the label of the picked entry. b

---

- Test system: PRKACA (mouse)
- Cond: compound 10.0 µM; accession and sequence are those of the human protein
Result Type: inhibition (%)

# count of solved cases: 3
compound=Cc1ccccc1C(=O)c1ccc(Nc2ccc(Br)cc2N)cc1Cl reported_measurement=4
compound=CN(C)c1ccc(/C=C2\C(=O)Nc3ccccc32)cc1 reported_measurement=1
compound=N#C/C(=C(/N)Sc1ccc(N)cc1)c1ccccc1C(F)(F)F reported_measurement=2

I: CC(C)N(CCC(=O)c1ccc2ccccc2c1)Cc1ccccc1
II: O=c1cc(N2CCOCC2)oc2c1ccc1ccccc12
III: CN1CCC(Nc2ncc3ncnc(Nc4ccc(F)c(Cl)c4)c3n2)CC1
Arrange by inhibition, high to low. Please respond with the labels ordered as the question requires. III, I, II
(III: 6%, I: 1%, II: 0%)
